Tested on: S. pneumoniae (8 isolates)
Format: cell-based, Streptococcus pneumonia
Settings: 20 h
observed-property: S. pneumoniae (8) MIC90

Please review the entries below; each comes with its answer.
{"compound": "CC[C@H](C)[C@H](NC(=O)[C@@H](Cc1ccccc1)NC)C(=O)N[C@@H](CO)C(=O)N[C@H](CCC(N)=O)C(=O)N[C@@H](C(=O)N[C@H](C(=O)N[C@@H](CO)C(=O)N[C@H]1C(=O)N[C@@H](C)C(=O)N[C@@H](CCCNC(=N)N)C(=O)N[C@@H]([C@@H](C)CC)C(=O)O[C@H]1C)[C@@H](C)CC)[C@@H](C)CC [[Arg10]teixobactin, reference compound]", "recorded-value": "0.25 mg/L"}
{"compound": "CC[C@H](C)[C@H](NC(=O)[C@@H](Cc1ccccc1)NC)C(=O)N[C@@H](CO)C(=O)N[C@H](CCC(N)=O)C(=O)N[C@@H](C(=O)N[C@H](C(=O)N[C@@H](CO)C(=O)N[C@H]1C(=O)N[C@@H](C)C(=O)N[C@@H](CCCCN)C(=O)N[C@@H]([C@@H](C)CC)C(=O)O[C@H]1C)[C@@H](C)CC)[C@@H](C)CC [[Lys10]teixobactin, reference compound]", "recorded-value": "≤0.12 mg/L"}

Dear colleague, could you send me S. pneumoniae (8) MIC90 for each of the items below? Thanks.
1. CC[C@H](C)[C@H](NC(=O)[C@@H](Cc1ccc(Cl)cc1)NC)C(=O)N[C@@H](CO)C(=O)N[C@H](CCC(N)=O)C(=O)N[C@@H](C(=O)N[C@H](C(=O)N[C@@H](CO)C(=O)N[C@H]1C(=O)N[C@@H](C)C(=O)N[C@@H](CCCCNC(=N)N)C(=O)N[C@@H]([C@@H](C)CC)C(=O)O[C@H]1C)[C@@H](C)CC)[C@@H](C)CC
2. CC[C@H](C)[C@H](NC(=O)[C@@H](Cc1ccccc1)NC)C(=O)N[C@@H](CO)C(=O)N[C@H](CCC(N)=O)C(=O)N[C@@H](C(=O)N[C@H](C(=O)N[C@@H](CO)C(=O)N[C@H]1C(=O)N[C@@H](C)C(=O)N[C@@H](Cc2ccc(NC(=N)N)cc2)C(=O)N[C@@H]([C@@H](C)CC)C(=O)O[C@H]1C)[C@@H](C)CC)[C@@H](C)CC

1: ≤0.12 mg/L; 2: ≤0.12 mg/L

====

System: S. pneumoniae (8 isolates)
Format: cell-based, Streptococcus pneumonia
Conditions: 20 h
For each entry below, report its S. pneumoniae (8) MIC90 value.

{"smiles-input": "CC[C@H](C)[C@H](NC(=O)[C@@H](Cc1ccccc1)NC)C(=O)N[C@@H](CO)C(=O)N[C@H](CCC(N)=O)C(=O)N[C@@H](C(=O)N[C@H](C(=O)N[C@@H](CO)C(=O)N[C@H]1C(=O)N[C@@H](C)C(=O)N[C@@H](CCCCNC(=N)N)C(=O)N[C@@H]([C@@H](C)CC)C(=O)O[C@H]1C)[C@@H](C)CC)[C@@H](C)CC", "S. pneumoniae (8) MIC90": "≤0.12 µg/mL"}

Now look at this one.
Tell me the measured S. pneumoniae (8) MIC90 of "CC[C@H](C)[C@H](NC(=O)[C@@H](Cc1ccccc1)NC)C(=O)N[C@@H](CO)C(=O)N[C@H](CCC(N)=O)C(=O)N[C@@H](C(=O)N[C@H](C(=O)N[C@@H](CO)C(=O)N[C@H]1C(=O)N[C@@H](C)C(=O)N[C@@H](CCCCNCc2ccccc2)C(=O)N[C@@H]([C@@H](C)CC)C(=O)O[C@H]1C)[C@@H](C)CC)[C@@H](C)CC" , please. ≤0.12 µg/mL
